# System: HCT116 pERK
# method notes: Phospho-ERK inhibition, AlphaLISA SureFire Ultra p-ERK 1/2
# Type: cell-based, human
# assay context: Homo sapiens, HCT-116; Table 2; 1 h treatment
A collection of compounds and their measured IC50

CSc1ncc2ncnc(Nc3c(F)ccc(NS(=O)(=O)c4cccc(F)c4C)c3F)c2n1: 1 to 10 µM

Now consider the entry below.
Q) Read off the recorded IC50 for COc1ccc(S(=O)(=O)Nc2ccc(F)c(Nc3ncnc4cnc(SC)nc34)c2F)cc1
A) 10 to 30 µM

----------
# System: NCI-H2122 pERK
# method notes: Phospho-ERK inhibition, AlphaLISA SureFire Ultra p-ERK 1/2
# Type: cell-based, human
# assay context: Homo sapiens, NCI-H2122; Table D-2
pIC50: −log10 of the molar value.
measured endpoint: pIC50

Cc1ccc2c(Nc3cccc(Cl)c3F)nccc2c1NC(=O)c1csc2c(N)ncnc12 [Belvarafenib, reference compound]: 6.52 to 7.52

Now consider the entry below.
Q) Read off the recorded pIC50 for Cc1c(F)cccc1S(=O)(=O)Nc1ccc(F)c(Nc2ncnc3cnc(-n4cnc5c(-c6cccnc6)cccc54)nc23)c1F
A) 6.52 to 7.52

----------
A collection of compounds and their measured HCT116 (Ymin %)
# Tested on: HCT116 pERK
# method notes: Phospho-ERK inhibition, AlphaLISA SureFire Ultra p-ERK 1/2
# Assay type: cell-based, human
# assay context: Table 3; lowest value of the pERK IC50 curve
Quick note: give the figure in %, leave out the unit.

Nc1cccc2c1nnn2-c1ncc2ncnc(Nc3c(F)ccc(NS(=O)(=O)c4cccc(Cl)c4Cl)c3F)c2n1: 7.7

Q) Look up HCT116 pERK data: HCT116 (Ymin %) of CCC1(O)CCN(c2cccc3c2ncn3-c2ncc3ncnc(Nc4c(F)ccc(NS(=O)(=O)c5cccc(Cl)c5Cl)c4F)c3n2)CC1 , then report it.
A) −6

Q) Look up HCT116 pERK data: HCT116 (Ymin %) of COc1ccc(S(=O)(=O)Nc2ccc(F)c(Nc3ncnc4cnc(N5CCC(O)C5)nc34)c2F)cc1 (stereo not shown) [Example 41] , then report it.
A) 13

Q) Look up HCT116 pERK data: HCT116 (Ymin %) of COc1ccc(S(=O)(=O)Nc2ccc(F)c(Nc3ncnc4cnc(-n5cnc6ccccc65)nc34)c2F)c(F)c1 , then report it.
A) 11

Q) Look up HCT116 pERK data: HCT116 (Ymin %) of CO[C@@H]1CCN(S(=O)(=O)Nc2ccc(F)c(Nc3ncnc4cnc(-n5ccc6ccccc65)nc34)c2F)C1 , then report it.
A) 17

Q) Look up HCT116 pERK data: HCT116 (Ymin %) of O=S(=O)(Nc1ccc(F)c(Nc2ncnc3cnc(-n4cnc5ccccc54)nc23)c1F)N1CC2CC2C1 (stereo not shown) , then report it.
A) −3

Q) Look up HCT116 pERK data: HCT116 (Ymin %) of CCC1(O)CCN(c2cccc3c2ncn3-c2ncc3ncnc(Nc4c(F)ccc(NS(=O)(=O)c5cccc(Cl)c5C(F)(F)F)c4F)c3n2)CC1 , then report it.
A) −1

Q) Look up HCT116 pERK data: HCT116 (Ymin %) of COc1ccc(S(=O)(=O)Nc2ccc(F)c(Nc3ncnc4cnc(-n5cc(C)nc5C)nc34)c2F)cc1 , then report it.
A) −5

Q) Look up HCT116 pERK data: HCT116 (Ymin %) of Cc1c(F)cccc1S(=O)(=O)Nc1ccc(F)c(Nc2ncnc3cnc(-n4cc(C(=O)N5CCOCC5)c5ccccc54)nc23)c1F , then report it.
A) 2.2

Q) Look up HCT116 pERK data: HCT116 (Ymin %) of O=S(=O)(Nc1ccc(F)c(Nc2ncnc3cnc(-n4cnc5ccccc54)nc23)c1F)N1CCC(OC(F)F)C1 (stereo not shown) , then report it.
A) 6

Q) Look up HCT116 pERK data: HCT116 (Ymin %) of Cc1c(F)cccc1S(=O)(=O)Nc1ccc(F)c(Nc2ncnc3cnc(-n4nnc5ccccc54)nc23)c1F , then report it.
A) −4

Q) Look up HCT116 pERK data: HCT116 (Ymin %) of Cc1c(F)cccc1S(=O)(=O)Nc1ccc(F)c(Nc2ncnc3cnc(-n4nnc5c(N)cccc54)nc23)c1F , then report it.
A) 1.3

Q) Look up HCT116 pERK data: HCT116 (Ymin %) of COc1ccc(S(=O)(=O)Nc2ccc(F)c(Nc3ncnc4cnc(Oc5cccc(N)c5)nc34)c2F)cc1 , then report it.
A) −7

Q) Look up HCT116 pERK data: HCT116 (Ymin %) of COc1ccc(S(=O)(=O)Nc2ccc(F)c(Nc3ncnc4cnc(N5CC(F)C5)nc34)c2F)cc1 , then report it.
A) 6

Q) Look up HCT116 pERK data: HCT116 (Ymin %) of Cc1c(F)cccc1S(=O)(=O)Nc1ccc(F)c(Nc2ncnc3cnc(-n4nc(C(=O)N5CCC[C@H](O)C5)c5ccccc54)nc23)c1F , then report it.
A) −6.5

Q) Look up HCT116 pERK data: HCT116 (Ymin %) of COc1ccc(S(=O)(=O)Nc2ccc(F)c(Nc3ncnc4cnc(-n5ccnc5C)nc34)c2F)cc1 , then report it.
A) 1

Q) Look up HCT116 pERK data: HCT116 (Ymin %) of COc1ccc(S(=O)(=O)Nc2ccc(F)c(Nc3ncnc4cnc(N5CC(F)C5)nc34)c2F)c(F)c1 , then report it.
A) −4

Q) Look up HCT116 pERK data: HCT116 (Ymin %) of Cc1c(F)cccc1S(=O)(=O)Nc1ccc(F)c(Nc2ncnc3cnc(-n4nc(C(=O)N5CCOCC5)c5ccccc54)nc23)c1F , then report it.
A) −3.7
